test system: Echinochloa oryzicola; assay: Pre-emergence herbicidal activity against Echinochloa oryzicola at 500 g a.i/ha measured after 14 days; assay type: functional, organism-based
Active and inactive are the calls of the source. The rule behind the calls is not given here.
Your reply should match one of these outcome classes. active, inactive

Cn1cc(NC(=O)c2ccc(F)cc2)c(Oc2cccc(C(F)(F)F)c2)n1    inactive
Cn1cc(C(=O)NC2CC2)c(Oc2cccc(C(F)(F)F)c2)n1    inactive
CCCN(CC)C(=O)c1cn(C)nc1Oc1cccc(C(F)(F)F)c1    inactive
CC(NC(=O)c1cn(C)nc1Oc1cccc(C(F)(F)F)c1)c1ccccc1 (stereo unspecified)    inactive
CCCONC(=O)c1cn(C)nc1Oc1cccc(C(F)(F)F)c1    active
Cn1cc(NC(=O)c2ccccc2)c(Oc2cccc(C(F)(F)F)c2)n1    active
Cn1cc(C(=O)NCC2CCCO2)c(Oc2cccc(C(F)(F)F)c2)n1 (stereo unspecified)    inactive
CCONC(=O)c1cn(C)nc1Oc1cccc(C(F)(F)F)c1    active
Cn1cc(NC(=O)c2ccc(F)cc2F)c(OCc2cccc(C(F)(F)F)c2)n1    active
Cn1cc(C(=O)NCc2cccc(Cl)c2)c(Oc2cccc(C(F)(F)F)c2)n1    inactive

With those in mind, consider the next compound.
Data request: Could you check what this test reported for Cn1cc(C(=O)N2CCCC2)c(Oc2cccc(C(F)(F)F)c2)n1 ?
Data returned: inactive

---

tested on: Elatine triandra; assay: Pre-emergence herbicidal activity against Elatine triandra at 500 g a.i/ha measured after 14 days; assay type: functional, organism-based
Activity calls are given as the source filed them. The calls are words filed in the database; no cut-off is given here.
Your reply should match one of these outcome classes. true for active, false for inactive

CSc1ccc(Oc2nn(C)cc2C(=O)Nc2ccc(F)cc2F)cc1C(F)(F)F    true

Data request: Could you check what this test reported for Cn1cc(NC(=O)c2ccc(F)cc2F)c(Oc2cccc(C(F)(F)F)c2)n1 ?
Data returned: false

Data request: Could you check what this test reported for CCCONC(=O)c1cn(C)nc1Oc1cccc(C(F)(F)F)c1 ?
Data returned: true

Data request: Could you check what this test reported for Cn1cc(C(=O)NCC2CCCO2)c(Oc2cccc(C(F)(F)F)c2)n1 (stereo unspecified) ?
Data returned: false

Data request: Could you check what this test reported for Cn1cc(NC(=O)c2ccc(F)cc2)c(Oc2cccc(C(F)(F)F)c2)n1 ?
Data returned: false

Data request: Could you check what this test reported for Cn1cc(C(=O)Nc2ccccc2)c(Oc2cccc(C(F)(F)F)c2)n1 ?
Data returned: true

Data request: Could you check what this test reported for C#CCNC(=O)c1cn(C)nc1Oc1cccc(C(F)(F)F)c1 ?
Data returned: false

Data request: Could you check what this test reported for Cn1cc(C(=O)NCc2cccc(Cl)c2)c(Oc2cccc(C(F)(F)F)c2)n1 ?
Data returned: false

Data request: Could you check what this test reported for Cn1cc(NC(=O)c2ccccc2)c(Oc2cccc(C(F)(F)F)c2)n1 ?
Data returned: false

Data request: Could you check what this test reported for CCONC(=O)c1cn(C)nc1Oc1cccc(C(F)(F)F)c1 ?
Data returned: true

Data request: Could you check what this test reported for CCCCNC(=O)c1cn(C)nc1Oc1cccc(C(F)(F)F)c1 ?
Data returned: false
